assay: protein stability index of a GFP-peptide fusion (yeast GPS) (PSI 1-4); higher = more stable; sorted into four equal gates, so the index is relative within each strain; details: san1∆
Provide the recorded protein stability index for the entries that follow.
Write the number on its own, no unit after it.

Name the recorded protein stability index for GNNVQENELVITSIPKP [RMP1] . 3.37

And for LVVYAEDNGIVKALRNV [RPL4A] ? 2.59

Thanks! And LVLPPVVTSSVAESFTD [SNF2] ? 2.39

Now this one: EPLTEIKNVIVSNRVAA [RPP0] 1.77

Entry to check: MKLSMPPEVTSSNCHVR [POP1] 2.32

// repeat for SQYSTMVNIGLHNLNEY [RGR1] and report 1.16

Can you check ESISQTPISNEQTEGEP [SRP68] next? 3.16

// same read-out, input: DVAYLLKSESATSQYLK [YGL172W/NUP49] 2.94

Follow-up entry: LKPEIEKLTSKSLDEQL [LRP1] 2.85

Request: KQANNFLWPFKLSNPSG [RPL7A] 3.09

Same again, this time with FISELCSIEPIAAKLIN [YML103C/NUP188] 1.44

Then this sequence: GNIISSDKTIVPTSIQT [SIN4] 2.1

# iterate: YKAKIKELENNLERLRS [YIL149C/MLP2] 2.64

And for KIDLASGKITDFIKFDA [RPS4A] ? 3.13
